assay: NCI Yeast Anticancer Drug Screen. Data for the bub3 strain (AID 167); conditions: S. cerevisiae bub3 mutant strain, stronger effect = higher value; at 50.0 µM unless noted
Compounds without any hit were thinned out: in the full panel of roughly 79,000, 15% have a hit.
Known growth inhibition of a selection of molecules
Use % as the unit, but write only the number.

Record excerpt, results attached:
molecule: CCOC(Cn1ccc[n+]1CC(=O)c1ccccc1)OCC
value reported: -5.75
//
molecule: O=C(COc1cc(Cl)c(Cl)cc1Cl)Nc1ccc(Cl)cc1
value reported: 17.1
//
molecule: CC(C)(C)c1ccncc1
value reported: 5.15
//
molecule: Oc1cc2c(cc1-c1cc3c(cc1O)OCO3)OCO2
value reported: -3.2

Lab book: growth inhibition of COc1ccc(Cl)cc1NC(=O)Oc1ccc(NC(C)=O)cc1 noted as 11

Noted for Cc1cccc(C(=O)NNC(=O)C(=O)NNC(=O)c2cccc(C)c2)c1 : its growth inhibition reads 24.6

Summary for this molecule, C[n+]1cn(-c2nc3ccccc3nc2[N-]S(=O)(=O)c2ccccc2)c2ccccc21 : growth inhibition is -20.1

###

assay: NCI Yeast Anticancer Drug Screen. Data for the mlh1 rad18 strain (AID 175); conditions: S. cerevisiae mlh1 rad18 strain growth inhibition, stronger effect = higher value; at 50.0 µM unless noted
This is part of a sample that, as a whole, favours compounds with a hit. Of some 79,000 tested, about 15% had one in any assay.
measured metric: growth inhibition (%)
Expressed in %, but write only the number.

Worked cases, growth inhibition given:
compound: NC(=O)Nc1ccc(/C=C\c2ccnc3ccccc23)cc1
value reported: -9.45

compound: COc1ccc(C2S/C(=C\c3ccc([N+](=O)[O-])cc3)C(=O)N2NC(=O)Cc2ccccc2)cc1 (stereo not drawn)
value reported: 8.65

compound: O=C1C=C(C2=CC(=O)c3cccc(O)c3C2=O)C(=O)c2c(O)cccc21
value reported: -4.7

compound: Cc1c(N(C)CN(C)c2c(C)n(C)n(-c3ccccc3)c2=O)c(=O)n(-c2ccccc2)n1C
value reported: -18

compound: O=NC1C(Br)C2CC1C1C(Br)C(Br)CC21 (stereo not drawn)
value reported: 6.7

Please turn your attention to the following entry.
Record O=C(Nc1ccc(Cl)c(Cl)c1)Oc1cccc(NC(=S)Nc2ccccc2)c1 . Reported growth inhibition: 94.7

###

test: NCI Yeast Anticancer Drug Screen. Data for the sgs1 mgt1 strain (AID 161);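 also: 0% = growth of cultures given vehicle only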; settings: S. cerevisiae sgs1 mgt1 strain, stronger effect = higher value; at 50.0 µM unless noted
About 79,000 compounds went through this panel and 15% of them were active in at least one assay; those are over-represented in the sample as a whole.
measured metric: growth inhibition (%)
I only need the number, in %, no unit after it.

Below, each entry is followed by its recorded growth inhibition result.
compound: C=C1c2nc3ccccc3n2C=C(c2ccc(C)cc2)N1c1ccc(C)cc1
unit of measurement: %
growth inhibition: 16.2
//
compound: O=C1OCC=C1Sc1ccccc1
unit of measurement: %
growth inhibition: -13.4
//
compound: C/C(=C\CNc1nc(Cl)nc2nc[nH]c12)CO
unit of measurement: %
growth inhibition: -32.6
//
compound: COC(=O)c1cc2c(cc1/C=C/C=O)OCO2
unit of measurement: %
growth inhibition: -19.4

Reported growth inhibition of Cc1ccc(NC(=O)CCS)cc1 : 9.5

get_value(item= CCc1ccc(NC(=O)c2ccccc2)cc1CC , readout=growth inhibition) returns -2.5

Short answer for CCC/C(=N\NC(=S)N1CCN(c2ccccn2)CC1)c1ccccn1 : growth inhibition was 88.8

Looking up O=c1[nH]c(=O)c2nc(-c3cccnc3)cnc2[nH]1 , I see its growth inhibition listed as -9.7

Just so you know, measured growth inhibition for CC1(O)C2CC3CC(C2)CC1C3 (stereo unspecified) came out at -13.3

Consider NC(=O)CCCO . Its measured growth inhibition is -3.25

The compound identified as O=C(O)C[N-]CC(=O)O.OO.[O]=[V] registered its growth inhibition at -1.7

# growth inhibition (compound: NC(CCn1cnc2c(=O)[nH]cnc21)C(=O)O (stereo unspecified) ) is 6.7

Field growth inhibition (entry CC1CCCCN1C(=O)Nc1ccc(Cl)cc1[N+](=O)[O-] (stereo unspecified) ) reads 29.6

All values here come from PubChem BioAssay (NCI).
